assay: Single dose PK, phase 1, healthy European men; type: in vivo, human; conditions: male, human, plasma, sc, 0.003 mg, single SC 0.003 mg, read-out: T½ (median) (converted)
Where a SMILES comes first, the peptide text is derived from it. [ ]: non-standard residue; d: D form. Arg(Me) = CNC(=N)NCCC[C@H](N)C(=O)O; Hyp = O=C(O)[C@@H]1C[C@@H](O)CN1; azaGly = NNC(=O)O
measure: half-life (h)
Note: unit h is implicit; provide only the numeric part.

Record summary for CC(=O)O.CNC(=N)NCCC[C@H](NC(=O)[C@H](CC(C)C)NC(=O)NNC(=O)[C@H](Cc1ccccc1)NC(=O)[C@@H](NC(=O)[C@H](CC(N)=O)NC(=O)[C@@H]1C[C@@H](O)CN1C(=O)[C@@H](Cc1ccc(O)cc1)NC(C)=O)[C@@H](C)O)C(=O)N[C@@H](Cc1c[nH]c2ccccc12)C(N)=O [API-MA] (Ac-[dY][Hyp]NTF[azaGly]L[Arg(Me)]W-NH2) : reported half-life = 1.43
